These measurements were taken from patent US20240300904A1.

# Assayed Target: human (h) natriuretic peptide receptor A (hNPR-A) (Homo sapiens, UniProt P16066)
# Construct: expressed in transfected cells
# Sequence (P16066 33-1061): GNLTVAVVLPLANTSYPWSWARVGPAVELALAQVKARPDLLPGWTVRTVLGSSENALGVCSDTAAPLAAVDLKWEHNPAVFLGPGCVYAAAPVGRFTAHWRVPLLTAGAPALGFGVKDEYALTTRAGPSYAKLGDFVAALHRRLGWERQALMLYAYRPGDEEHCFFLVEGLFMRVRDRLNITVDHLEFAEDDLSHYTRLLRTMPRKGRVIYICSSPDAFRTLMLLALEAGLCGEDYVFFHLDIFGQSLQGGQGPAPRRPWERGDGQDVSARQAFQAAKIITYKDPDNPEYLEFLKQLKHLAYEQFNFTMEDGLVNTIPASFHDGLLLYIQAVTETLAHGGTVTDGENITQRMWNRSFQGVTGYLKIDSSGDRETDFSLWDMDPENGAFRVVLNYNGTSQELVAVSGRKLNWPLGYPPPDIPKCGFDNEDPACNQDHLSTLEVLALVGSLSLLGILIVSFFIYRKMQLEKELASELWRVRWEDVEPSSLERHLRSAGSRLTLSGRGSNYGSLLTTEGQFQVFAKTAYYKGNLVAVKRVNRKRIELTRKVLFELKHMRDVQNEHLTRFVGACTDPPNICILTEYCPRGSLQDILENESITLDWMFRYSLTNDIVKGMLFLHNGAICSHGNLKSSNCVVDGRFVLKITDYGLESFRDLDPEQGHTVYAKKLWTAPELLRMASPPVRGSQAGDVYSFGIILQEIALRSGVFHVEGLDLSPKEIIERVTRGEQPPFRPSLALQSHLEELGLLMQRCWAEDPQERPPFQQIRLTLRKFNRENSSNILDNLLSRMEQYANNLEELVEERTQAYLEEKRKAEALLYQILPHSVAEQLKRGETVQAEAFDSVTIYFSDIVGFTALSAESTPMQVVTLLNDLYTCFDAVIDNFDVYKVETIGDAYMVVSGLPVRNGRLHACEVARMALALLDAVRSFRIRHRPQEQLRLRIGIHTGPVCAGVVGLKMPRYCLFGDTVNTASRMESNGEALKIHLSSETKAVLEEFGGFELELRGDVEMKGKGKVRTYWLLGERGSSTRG
# Sequence (P16860 103-134 partner limits assumed): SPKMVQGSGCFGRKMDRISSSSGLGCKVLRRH
# Test Name: AlphaScreen assay for cGMP: BNP-mediated NPR-A activity (cGMP production)
# Assay type: cell-based
# Experimental Context: conc. response of compound + 0.1 nM BNP; percentage of maximum BNP-mediated cGMP production; read-out: Max Response
Endpoint: Emax (%)

The examples below pair each entry with its known result.
| Smiles Entry | Endpoint Unit | Emax |
| --- | --- | --- |
| O=C(Cn1nccc(Cl)c1=O)c1ccc(Cl)cc1 | % | 48.6 |
| Cc1cc(C(=O)Cn2ncc(Cl)c(Cl)c2=O)ccc1Cl | % | 45.4 |
| O=C(Cn1ncc(Cl)c(Cl)c1=O)c1ccc(Cl)cc1 | % | 45.3 |
| O=C(Cn1ncc(Cl)c(Cl)c1=O)C12CC3CC(CC(C3)C1)C2 | % | 53.1 |
| O=C(Cn1ncc(Cl)c(Cl)c1=O)Nc1cnn(-c2ccccc2)c1 | % | 45.7 |
| O=C(Cn1nccc(Cl)c1=O)c1ccc(Cl)cc1Cl | % | 37.8 |

P: O=C(Cn1ncc(Cl)c(Cl)c1=O)c1ccc(Cl)c(F)c1
Q: CC(C)c1ccc(CCNC(=O)Cn2ncc(Cl)c(Cl)c2=O)cc1
Q: Param metric = Emax; output whichever of P , Q has the minimum value. Answer = label.
A: Q
